target_or_system: hNav1.6 channels (Homo sapiens)
Construct: expressed in transfected cells; host or cells: CHO-K1 (ATCC CCL-61)
Sequence (Q9UQD0 whole entry): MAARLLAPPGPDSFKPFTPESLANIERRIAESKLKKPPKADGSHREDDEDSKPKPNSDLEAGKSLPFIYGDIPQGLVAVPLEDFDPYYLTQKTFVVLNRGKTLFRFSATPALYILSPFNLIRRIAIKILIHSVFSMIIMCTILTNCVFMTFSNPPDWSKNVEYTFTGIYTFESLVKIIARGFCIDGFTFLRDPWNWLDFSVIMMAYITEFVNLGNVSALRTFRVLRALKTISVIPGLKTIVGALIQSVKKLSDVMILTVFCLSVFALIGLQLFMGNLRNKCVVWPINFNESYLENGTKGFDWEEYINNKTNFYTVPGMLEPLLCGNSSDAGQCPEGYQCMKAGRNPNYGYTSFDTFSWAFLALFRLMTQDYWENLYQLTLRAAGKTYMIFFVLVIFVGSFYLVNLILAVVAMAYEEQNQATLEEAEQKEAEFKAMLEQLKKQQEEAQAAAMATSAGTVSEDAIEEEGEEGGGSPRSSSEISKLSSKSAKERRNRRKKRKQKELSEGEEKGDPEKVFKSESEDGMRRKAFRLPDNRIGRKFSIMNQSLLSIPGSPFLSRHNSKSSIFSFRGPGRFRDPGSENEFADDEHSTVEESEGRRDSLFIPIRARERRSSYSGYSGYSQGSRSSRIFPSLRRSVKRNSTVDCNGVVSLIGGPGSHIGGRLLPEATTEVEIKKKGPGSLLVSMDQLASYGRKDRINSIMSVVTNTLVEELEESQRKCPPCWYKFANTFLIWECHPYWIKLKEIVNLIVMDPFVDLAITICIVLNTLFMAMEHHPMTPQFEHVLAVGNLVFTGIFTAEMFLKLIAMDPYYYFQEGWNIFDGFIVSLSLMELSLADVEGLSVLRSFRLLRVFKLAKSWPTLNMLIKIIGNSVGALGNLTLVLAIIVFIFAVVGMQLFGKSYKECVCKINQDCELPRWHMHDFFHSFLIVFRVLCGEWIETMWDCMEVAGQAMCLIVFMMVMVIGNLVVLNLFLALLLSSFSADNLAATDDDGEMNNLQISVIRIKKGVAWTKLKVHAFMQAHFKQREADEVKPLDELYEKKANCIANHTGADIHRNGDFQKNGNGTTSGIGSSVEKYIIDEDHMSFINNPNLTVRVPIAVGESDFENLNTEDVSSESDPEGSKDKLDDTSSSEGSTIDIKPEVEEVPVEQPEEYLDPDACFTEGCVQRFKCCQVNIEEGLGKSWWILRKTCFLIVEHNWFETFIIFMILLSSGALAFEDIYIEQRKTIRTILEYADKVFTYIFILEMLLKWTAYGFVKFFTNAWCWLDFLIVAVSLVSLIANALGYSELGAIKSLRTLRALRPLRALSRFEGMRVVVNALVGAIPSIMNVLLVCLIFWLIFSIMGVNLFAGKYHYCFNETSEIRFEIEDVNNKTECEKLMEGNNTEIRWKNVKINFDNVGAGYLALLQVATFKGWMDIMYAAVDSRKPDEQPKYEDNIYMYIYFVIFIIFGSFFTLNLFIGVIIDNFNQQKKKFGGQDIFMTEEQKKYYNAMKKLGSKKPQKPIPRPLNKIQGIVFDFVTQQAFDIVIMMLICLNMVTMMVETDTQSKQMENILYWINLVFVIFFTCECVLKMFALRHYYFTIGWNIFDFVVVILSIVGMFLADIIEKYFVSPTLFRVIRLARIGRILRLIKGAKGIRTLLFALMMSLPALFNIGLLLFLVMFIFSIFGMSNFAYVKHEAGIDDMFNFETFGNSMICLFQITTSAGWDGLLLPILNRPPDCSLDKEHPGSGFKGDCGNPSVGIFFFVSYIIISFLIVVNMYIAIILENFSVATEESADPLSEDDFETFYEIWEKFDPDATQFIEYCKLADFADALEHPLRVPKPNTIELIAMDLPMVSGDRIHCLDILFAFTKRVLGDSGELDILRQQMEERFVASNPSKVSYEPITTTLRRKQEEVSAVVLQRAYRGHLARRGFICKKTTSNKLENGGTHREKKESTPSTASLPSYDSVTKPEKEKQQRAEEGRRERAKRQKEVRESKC
test_protocol: Patch-clamp (PatchXpress 7000A) on transfected CHO cells, hNav1.6
Type: cell-based
protocol_conditions: hNav1.6 IC50, Phasic Experiment, CHO cells, n = 6, mean ± SEM; 2-H exposure limited to 3 min
outcome_measure: pIC50
One number for each entry, as −log10 of the molar value.

Look up and report measured pIC50 for this entry: `CCN(CC)CC(=O)Nc1c(C)cccc1C`
3.52

###

target_or_system: hNav1.2 channels (Homo sapiens)
Construct: expressed in transfected cells; host or cells: CHO-K1 (ATCC CCL-61)
Sequence (Q99250 whole entry): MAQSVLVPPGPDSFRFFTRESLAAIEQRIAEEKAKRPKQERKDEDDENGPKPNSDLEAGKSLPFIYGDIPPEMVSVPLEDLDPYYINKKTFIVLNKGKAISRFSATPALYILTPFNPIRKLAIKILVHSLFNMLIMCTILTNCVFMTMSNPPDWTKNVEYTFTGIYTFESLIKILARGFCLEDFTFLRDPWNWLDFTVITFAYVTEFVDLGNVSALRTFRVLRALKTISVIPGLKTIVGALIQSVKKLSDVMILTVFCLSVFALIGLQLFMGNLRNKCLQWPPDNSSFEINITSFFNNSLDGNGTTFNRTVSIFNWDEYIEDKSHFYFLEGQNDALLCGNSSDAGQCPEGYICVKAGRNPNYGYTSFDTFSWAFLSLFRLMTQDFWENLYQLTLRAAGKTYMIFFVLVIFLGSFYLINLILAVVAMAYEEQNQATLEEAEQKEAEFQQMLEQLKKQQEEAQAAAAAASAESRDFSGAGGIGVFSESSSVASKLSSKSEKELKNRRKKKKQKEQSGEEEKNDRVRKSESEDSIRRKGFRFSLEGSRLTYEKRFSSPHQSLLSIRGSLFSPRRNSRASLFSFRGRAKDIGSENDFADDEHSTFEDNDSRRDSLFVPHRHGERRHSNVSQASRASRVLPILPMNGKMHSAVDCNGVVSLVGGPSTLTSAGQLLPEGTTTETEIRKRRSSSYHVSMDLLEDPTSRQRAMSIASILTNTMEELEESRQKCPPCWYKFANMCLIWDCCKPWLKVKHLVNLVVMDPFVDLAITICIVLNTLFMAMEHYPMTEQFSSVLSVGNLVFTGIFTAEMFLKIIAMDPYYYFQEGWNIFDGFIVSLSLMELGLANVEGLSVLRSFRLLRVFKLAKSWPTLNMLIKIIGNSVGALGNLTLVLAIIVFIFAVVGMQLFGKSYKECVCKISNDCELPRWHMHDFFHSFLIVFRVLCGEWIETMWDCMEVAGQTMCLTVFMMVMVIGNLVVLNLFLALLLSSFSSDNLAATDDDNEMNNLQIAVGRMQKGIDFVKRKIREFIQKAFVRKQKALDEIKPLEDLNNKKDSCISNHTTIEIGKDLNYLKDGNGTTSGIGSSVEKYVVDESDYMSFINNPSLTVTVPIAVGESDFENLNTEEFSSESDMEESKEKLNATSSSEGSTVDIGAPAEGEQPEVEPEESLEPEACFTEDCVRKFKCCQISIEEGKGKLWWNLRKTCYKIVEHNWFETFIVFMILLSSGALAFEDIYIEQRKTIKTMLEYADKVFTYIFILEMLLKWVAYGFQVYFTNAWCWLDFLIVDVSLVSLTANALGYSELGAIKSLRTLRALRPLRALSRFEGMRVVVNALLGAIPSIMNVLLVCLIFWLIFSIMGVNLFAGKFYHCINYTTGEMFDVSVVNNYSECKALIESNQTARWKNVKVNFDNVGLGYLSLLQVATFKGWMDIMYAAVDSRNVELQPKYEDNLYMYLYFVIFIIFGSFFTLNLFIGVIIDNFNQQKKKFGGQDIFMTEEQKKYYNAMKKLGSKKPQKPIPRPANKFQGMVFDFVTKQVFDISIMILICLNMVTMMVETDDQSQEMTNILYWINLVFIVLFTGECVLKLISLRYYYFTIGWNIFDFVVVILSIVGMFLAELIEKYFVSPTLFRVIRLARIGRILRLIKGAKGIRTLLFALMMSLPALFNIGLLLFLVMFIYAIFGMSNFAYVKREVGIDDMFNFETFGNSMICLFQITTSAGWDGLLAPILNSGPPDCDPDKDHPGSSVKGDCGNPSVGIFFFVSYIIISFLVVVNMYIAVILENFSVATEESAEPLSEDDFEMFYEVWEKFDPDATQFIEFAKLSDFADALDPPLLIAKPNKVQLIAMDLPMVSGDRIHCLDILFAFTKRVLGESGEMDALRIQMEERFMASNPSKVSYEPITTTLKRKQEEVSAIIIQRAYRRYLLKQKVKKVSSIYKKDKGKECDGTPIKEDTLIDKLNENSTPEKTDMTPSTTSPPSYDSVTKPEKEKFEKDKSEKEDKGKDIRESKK
test_protocol: Patch-clamp (PatchXpress 7000A) on transfected CHO cells, hNav1.2
Format: cell-based
protocol_conditions: Phasic Experiment, CHO cells, n = 6, mean ± SEM; 2-H exposure limited to 3 min
outcome_measure: IC50 (mM)
Numbers only, in mM.

Please look at this molecule and report its IC50: `CCCCCC(C)=O`
6.57
